system: mouse; experiment: Black and white box test (Example 14); format: in vivo; details: 0.1 mg/kg, 5-min recording
observable: Parameter 2: Time spent in White area (TW), Mean (s)
One number for each entry, in s.

| compound | reported_result |
| --- | --- |
| ON1CCCCC1Cc1ccccc1 (stereo not shown) | 152.125 |

Each compound below has a reported value. Please supply its Parameter 2: Time spent in White area (TW), Mean.
1. ON1CCOCC1c1ccccc1 (stereo not shown) [Example P1, 3-phenylmorpholin-4-ol]
2. ON1CCOCC1Cc1ccccc1 (stereo not shown) [Example P2, 3-benzylmorpholin-4-ol]
3. ON1CCCCC1c1ccccc1 (stereo not shown)

[A]
1. 116.750
2. 59.250
3. 105.125

====

tested on: mouse; assay: Black and white box test (Example 14); assay type: in vivo; conditions: 0.1 mg/kg
observable: Parameter 8: Ctot (total number of line crossings), Mean (No./5 min)
One number for each entry, in No./5 min.

Worked set:
| compound | assayed_target | value_units | reported_result |
| --- | --- | --- | --- |
| ON1CCOCC1c1ccccc1 (stereo not shown) [Example P1, 3-phenylmorpholin-4-ol] | mouse | No./5 min | 137.000 |
| ON1CCCCC1c1ccccc1 (stereo not shown) | mouse | No./5 min | 127.500 |
| ON1CCOCC1Cc1ccccc1 (stereo not shown) [Example P2, 3-benzylmorpholin-4-ol] | mouse | No./5 min | 108.375 |

Now look at this one.
[Q] // returns reported Parameter 8: Ctot (total number of line crossings), Mean for input ON1CCCCC1Cc1ccccc1 (stereo not shown)
[A] 153.750

====

test system: mouse; assay: Black and white box test (Example 14); format: in vivo; settings: 0.1 mg/kg
Provide the recorded Parameter 9: RW/TW (exploratory rearings in the white section), Mean for the entries that follow.

Worked set:
| compound | reported_result |
| --- | --- |
| ON1CCCCC1Cc1ccccc1 (stereo not shown) | .190 No./sec |
| ON1CCOCC1c1ccccc1 (stereo not shown) [Example P1, 3-phenylmorpholin-4-ol] | .155 No./sec |
| ON1CCCCC1c1ccccc1 (stereo not shown) | .123 No./sec |

Now look at this one.
[Q] // returns reported Parameter 9: RW/TW (exploratory rearings in the white section), Mean for input ON1CCOCC1Cc1ccccc1 (stereo not shown) [Example P2, 3-benzylmorpholin-4-ol]
[A] .099 No./sec

====

Provide the recorded Parameter 10: CW/TW (line crossings in the white section), Mean for the entries that follow.
tested on: mouse; experiment: Black and white box test (Example 14); type: in vivo; conditions: 0.1 mg/kg

Each compound below has a reported value. Please supply its Parameter 10: CW/TW (line crossings in the white section), Mean.
1. ON1CCOCC1Cc1ccccc1 (stereo not shown) [Example P2, 3-benzylmorpholin-4-ol]
2. ON1CCOCC1c1ccccc1 (stereo not shown) [Example P1, 3-phenylmorpholin-4-ol]
3. ON1CCCCC1Cc1ccccc1 (stereo not shown) [Example P6, 2-benzylpiperidin-1-ol]
4. ON1CCCCC1c1ccccc1 (stereo not shown) [Example P5, 2-phenylpiperidin-1-ol]

[A]
1. .420 No./sec
2. .454 No./sec
3. .515 No./sec
4. .448 No./sec

====

Provide the recorded Parameter 1: Latency L (initial movement from the white to the black area), Mean for the entries that follow.
system: mouse; assay: Black and white box test (Example 14); format: in vivo; details: 0.1 mg/kg, 5-min recording
One number for each entry, in s.

| compound | assayed_target | reported_result |
| --- | --- | --- |
| ON1CCOCC1c1ccccc1 (stereo not shown) [Example P1, 3-phenylmorpholin-4-ol] | mouse | 20.125 |
| ON1CCCCC1c1ccccc1 (stereo not shown) | mouse | 20.625 |
| ON1CCCCC1Cc1ccccc1 (stereo not shown) | mouse | 14.500 |

[Q] // returns reported Parameter 1: Latency L (initial movement from the white to the black area), Mean for input ON1CCOCC1Cc1ccccc1 (stereo not shown) [Example P2, 3-benzylmorpholin-4-ol]
[A] 19.625
